Consider the following compounds; for each one, report its Vmax.
- target-system: XOD (xanthine oxidase) (Bos taurus)
- assay-explanation: Kinetic mechanisms of XOD inhibition (Lineweaver-Burk)
- Type: biochemical, bovine
- measurement-setup: inhibitor 2.0 mM
Give bare numbers, in mM/min.

# per-item lookup of Vmax; items listed below
1. O=C(O)/C=C/c1ccc(O)cc1 [p-Coumaric acid, p-coumaric acid]
2. O=C(O)c1ccc(O)c(O)c1 [Protocatechuic acid, protocatechuic acid]
3. O=C(O)c1cc(O)c(O)c(O)c1 [Gallic acid, gallic acid]
4. COc1cc(/C=C/C(=O)O)ccc1O [Ferulic acid, ferulic acid]

Result string:
0.74
0.72
4.72
1.39

---

- target-system: XOD (xanthine oxidase) (Bos taurus, UniProt P80457)
- Sequence (P80457 whole entry): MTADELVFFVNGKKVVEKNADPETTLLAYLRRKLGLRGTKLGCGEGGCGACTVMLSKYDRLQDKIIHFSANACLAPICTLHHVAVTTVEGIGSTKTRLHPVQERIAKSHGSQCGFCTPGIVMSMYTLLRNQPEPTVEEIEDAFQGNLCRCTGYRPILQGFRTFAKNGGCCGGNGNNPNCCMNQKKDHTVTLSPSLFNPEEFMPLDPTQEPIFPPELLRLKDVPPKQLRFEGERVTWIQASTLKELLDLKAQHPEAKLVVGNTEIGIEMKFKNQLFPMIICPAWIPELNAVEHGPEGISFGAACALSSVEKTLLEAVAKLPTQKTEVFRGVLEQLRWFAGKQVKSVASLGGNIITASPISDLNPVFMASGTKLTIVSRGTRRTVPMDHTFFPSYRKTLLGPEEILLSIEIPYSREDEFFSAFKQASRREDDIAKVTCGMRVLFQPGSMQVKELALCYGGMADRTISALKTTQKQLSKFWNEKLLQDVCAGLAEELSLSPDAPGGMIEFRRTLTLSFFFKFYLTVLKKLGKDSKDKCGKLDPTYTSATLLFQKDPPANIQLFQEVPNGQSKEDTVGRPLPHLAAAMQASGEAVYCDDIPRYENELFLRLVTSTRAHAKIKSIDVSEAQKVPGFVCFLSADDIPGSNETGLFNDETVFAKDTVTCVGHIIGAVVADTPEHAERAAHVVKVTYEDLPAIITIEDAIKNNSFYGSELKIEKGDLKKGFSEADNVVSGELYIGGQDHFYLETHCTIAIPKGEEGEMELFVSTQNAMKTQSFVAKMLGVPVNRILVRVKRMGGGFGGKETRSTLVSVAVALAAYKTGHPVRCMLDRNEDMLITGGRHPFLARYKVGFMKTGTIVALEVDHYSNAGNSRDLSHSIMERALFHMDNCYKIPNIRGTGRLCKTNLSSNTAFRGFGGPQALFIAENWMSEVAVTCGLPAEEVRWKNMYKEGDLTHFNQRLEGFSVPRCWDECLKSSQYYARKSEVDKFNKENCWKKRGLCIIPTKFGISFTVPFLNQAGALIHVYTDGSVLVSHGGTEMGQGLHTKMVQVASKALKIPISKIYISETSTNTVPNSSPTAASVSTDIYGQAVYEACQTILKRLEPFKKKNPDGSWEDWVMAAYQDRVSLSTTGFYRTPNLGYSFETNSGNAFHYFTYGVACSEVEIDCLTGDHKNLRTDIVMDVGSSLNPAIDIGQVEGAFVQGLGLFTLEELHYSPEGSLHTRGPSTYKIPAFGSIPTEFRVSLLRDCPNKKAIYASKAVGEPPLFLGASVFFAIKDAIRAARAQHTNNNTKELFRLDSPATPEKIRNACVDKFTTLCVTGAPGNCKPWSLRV
- assay-explanation: XOD inhibitory activity in vitro (enzymatic reaction, HPLC of UA)
- Format: biochemical, bovine
quantity-measured: IC50 (µM)
Give bare numbers, in µM.

Query string: Provide IC50 value for the following molecule: O=C(O)c1cc(O)c(O)c(O)c1
Result string: 870

---

- target-system: XOD (Bos taurus, UniProt P80457)
- Construct: XOD (7.2 units/mL, derived from bovine milk); purchased Sigma-Aldrich (St. Louis, MO, USA); host or cells: bovine milk
- Sequence (P80457 whole entry): as above
- assay-explanation: CD spectroscopy, secondary structure of XOD
- Design: species or system bovine
- measurement-setup: XOD with phenolic acid; XOD alone 13.87
quantity-measured: β-sheet content of XOD (%)
Numbers only, in %.

Reference set (3 entries):
[
  {
    "compound": "O=C(O)/C=C/c1ccc(O)cc1 [p-Coumaric acid, p-coumaric acid]",
    "quantitative-readout": 14.70
  },
  {
    "compound": "O=C(O)c1ccc(O)c(O)c1 [Protocatechuic acid, protocatechuic acid]",
    "quantitative-readout": 14.47
  },
  {
    "compound": "COc1cc(/C=C/C(=O)O)ccc1O [Ferulic acid, ferulic acid]",
    "quantitative-readout": 14.07
  }
]

From here, focus on the item given below.
Query string: Provide β-sheet content of XOD value for the following compound: O=C(O)c1cc(O)c(O)c(O)c1 [Gallic acid, gallic acid]
Result string: 13.30

---

# pKi measurements, system: XOD (xanthine oxidase) (Bos taurus)
Answers are plain numbers, as −log10 of the molar value.

Reference set (2 entries):
[
  {
    "compound": "O=C(O)c1ccc(O)c(O)c1 [Protocatechuic acid, protocatechuic acid]",
    "pKi": 2.49
  },
  {
    "compound": "COc1cc(/C=C/C(=O)O)ccc1O [Ferulic acid, ferulic acid]",
    "pKi": 3.05
  }
]

Query string: Provide pKi value for the following compound: O=C(O)/C=C/c1ccc(O)cc1 [p-Coumaric acid, p-coumaric acid]
Result string: 2.85

---

# pKd measurements, system: UniProt P80457
Numbers only, as −log10 of the molar value.

Reference set (3 entries):
[
  {
    "substance-smiles": "COc1cc(/C=C/C(=O)O)ccc1O",
    "target-system": "UniProt P80457",
    "pKd": 2.15
  },
  {
    "substance-smiles": "O=C(O)/C=C/c1ccc(O)cc1",
    "target-system": "UniProt P80457",
    "pKd": 4.00
  },
  {
    "substance-smiles": "O=C(O)c1ccc(O)c(O)c1",
    "target-system": "UniProt P80457",
    "pKd": 3.14
  }
]

Query string: Provide pKd value for the following molecule: O=C(O)c1cc(O)c(O)c(O)c1
Result string: 3.86

---

Consider the following molecules; for each one, report its log10 of IC50.
- assay-explanation: ABTS radical scavenging activity
Reminder: these figures are log10 of reported IC50, in µM before transformation.

Reference set (4 entries):
[
  {
    "molecule": "O=C(O)c1ccc(O)c(O)c1",
    "log10 of IC50": 2.60
  },
  {
    "molecule": "O=C(O)/C=C/c1ccc(O)cc1",
    "log10 of IC50": 2.36
  },
  {
    "molecule": "COc1cc(/C=C/C(=O)O)ccc1O",
    "log10 of IC50": 2.48
  },
  {
    "molecule": "O=C(O)c1cc(O)c(O)c(O)c1",
    "log10 of IC50": 1.30
  }
]

From here, focus on the item given below.
Query string: Provide log10 of IC50 value for the following molecule: Cc1c(C)c2c(c(C)c1O)CCC(C)(C(=O)O)O2 (centres unmarked) [Trolox, reference compound]
Result string: 3.53

---

- target-system: XOD (Bos taurus, UniProt P80457)
- Construct: XOD (7.2 units/mL, derived from bovine milk); purchased Sigma-Aldrich (St. Louis, MO, USA); host or cells: bovine milk
- assay-explanation: Fluorescence quenching of XOD (Stern-Volmer)
- Format: binding, bovine
- measurement-setup: 298 K
Consider the following compounds; for each one, report its Kq (quenching rate constant).

Reference set (3 entries):
[
  {
    "substance-smiles": "O=C(O)c1cc(O)c(O)c(O)c1",
    "Kq (quenching rate constant)": "0.26 ± 0.01 1012 L*mol-1*s-1"
  },
  {
    "substance-smiles": "COc1cc(/C=C/C(=O)O)ccc1O",
    "Kq (quenching rate constant)": "0.16 ± 0.01 1012 L*mol-1*s-1"
  },
  {
    "substance-smiles": "O=C(O)/C=C/c1ccc(O)cc1",
    "Kq (quenching rate constant)": "0.91 ± 0.01 1012 L*mol-1*s-1"
  }
]

Query string: Provide Kq (quenching rate constant) value for the following compound: O=C(O)c1ccc(O)c(O)c1
Result string: 0.18 ± 0.01 1012 L*mol-1*s-1

---

- target-system: XOD (Bos taurus)
- Construct: XOD (7.2 units/mL, derived from bovine milk); purchased Sigma-Aldrich (St. Louis, MO, USA); host or cells: bovine milk
- assay-explanation: Fluorescence quenching of XOD (Stern-Volmer)
- Type: binding, bovine
- measurement-setup: 298 K
quantity-measured: n (number of binding sites)
Numbers only.

Reference set (3 entries):
[
  {
    "compound": "COc1cc(/C=C/C(=O)O)ccc1O [Ferulic acid, ferulic acid]",
    "target-system": "XOD (Bos taurus)",
    "quantitative-readout": 0.70
  },
  {
    "compound": "O=C(O)c1ccc(O)c(O)c1 [Protocatechuic acid, protocatechuic acid]",
    "target-system": "XOD (Bos taurus)",
    "quantitative-readout": 0.98
  },
  {
    "compound": "O=C(O)c1cc(O)c(O)c(O)c1 [Gallic acid, gallic acid]",
    "target-system": "XOD (Bos taurus)",
    "quantitative-readout": 1.13
  }
]

From here, focus on the item given below.
Query string: Report measured n (number of binding sites) on XOD (Bos taurus); entry: O=C(O)/C=C/c1ccc(O)cc1 [p-Coumaric acid, p-coumaric acid]
Result string: 1.01

---

Consider the following molecules; for each one, report its Kis (inhibition constant for the XOD-substrate complex).
- target-system: XOD (xanthine oxidase) (Bos taurus, UniProt P80457)
- assay-explanation: Kinetic mechanisms of XOD inhibition (Lineweaver-Burk)
- Type: biochemical, bovine
- measurement-setup: mixed inhibition model
Give bare numbers, in mM.

[
  {
    "substance-smiles": "O=C(O)c1cc(O)c(O)c(O)c1",
    "quantity-unit": "mM",
    "quantitative-readout": 3.05
  }
]

# per-item lookup of Kis (inhibition constant for the XOD-substrate complex); items listed below
1. O=C(O)c1ccc(O)c(O)c1
2. O=C(O)/C=C/c1ccc(O)cc1
3. COc1cc(/C=C/C(=O)O)ccc1O

Result string:
1: 17.76; 2: 6.04; 3: 1.78

---

Consider the following molecules; for each one, report its ORAC Value.
- assay-explanation: Oxygen radical absorption capacity (ORAC)
- measurement-setup: Trolox equivalents

Reference set (3 entries):
[
  {
    "molecule": "O=C(O)/C=C/c1ccc(O)cc1 [p-Coumaric acid, p-coumaric acid]",
    "result": "9.64 ± 0.27 b mmol TE/mmol"
  },
  {
    "molecule": "O=C(O)c1ccc(O)c(O)c1 [Protocatechuic acid, protocatechuic acid]",
    "result": "6.63 ± 0.09 d mmol TE/mmol"
  },
  {
    "molecule": "O=C(O)c1cc(O)c(O)c(O)c1 [Gallic acid, gallic acid]",
    "result": "20.12 ± 0.74 a mmol TE/mmol"
  }
]

Query string: Provide ORAC Value value for the following molecule: COc1cc(/C=C/C(=O)O)ccc1O [Ferulic acid, ferulic acid]
Result string: 7.99 ± 0.24 c mmol TE/mmol
